# Experiment: NCI Yeast Anticancer Drug Screen. Data for the cln2 rad14 strain (AID 165);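 note: 0% = growth equal to vehicle treated cultures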
# Reported Conditions: S. cerevisiae cln2 rad14 strain, at 5.0 µM (retest, dose inferred, filed as 0.5), hits give high values
This is part of a sample that, as a whole, favours compounds with a hit. Of some 79,000 tested, about 15% had one in any assay.
Value Type: growth inhibition (%)
The reply should be a number in %, with the unit left off.

Lookup: Suppose we examine the compound Fc1ccc(NC(=S)SCc2ccc3c(c2)OCO3)cc1 ; what growth inhibition value has been reported?
Found: -13

Lookup: Suppose we examine the compound CN(C)CCC(=O)c1cccc([N+](=O)[O-])c1 ; what growth inhibition value has been reported?
Found: 7

Lookup: Suppose we examine the compound COC1CC2CCC(C)[C@](O)(O2)C(=O)C(=O)N2CCCCC2C(=O)OC(C(C)CC2CCC(O)C(OC)C2)CC(=O)C(C)C=C(C)C(OC(=O)CN(C)C)C(OC)C(=O)C(C)CC(C)/C=C/C=C/C=C\1C (some centres undefined) ; what growth inhibition value has been reported?
Found: 95

Lookup: Suppose we examine the compound O=C1CCC(c2ccccc2)(C2(c3ccccc3)CCC(=O)O2)O1 (centres undefined) ; what growth inhibition value has been reported?
Found: 4

Lookup: Suppose we examine the compound CC(C)N1CSC(=S)N(Cc2ccccc2)C1 ; what growth inhibition value has been reported?
Found: 56

Lookup: Suppose we examine the compound Oc1c(Cl)c(Cl)c(Cl)c2ccccc12 ; what growth inhibition value has been reported?
Found: 39

Lookup: Suppose we examine the compound CC(=O)OC1CC2C(C)(C)C(=O)C=C[C@]2(C)C2CCC3(C)C(=CC(=O)C3c3ccoc3)[C@]12C (some centres undefined) ; what growth inhibition value has been reported?
Found: 19

Lookup: Suppose we examine the compound COC(=O)[C@]1(C)CCC[C@]2(C)c3cc(C(C)=O)c(C(C)C)cc3CC[C@@H]12 ; what growth inhibition value has been reported?
Found: -1

Lookup: Suppose we examine the compound CN1CCN(CN2C(=O)C3C4C=CC(C3C2=O)C2C3C(=O)N(CN5CCN(C)CC5)C(=O)C3C42)CC1 (centres undefined) ; what growth inhibition value has been reported?
Found: -10

Lookup: Suppose we examine the compound CC1=CC(=Nc2ccc(N(C)C)cc2)C=CC1=O ; what growth inhibition value has been reported?
Found: -3

Lookup: Suppose we examine the compound COc1ccc2nc(C)cc(NCCCCCCCCCNc3cc(C)nc4ccc(OC)cc34)c2c1 ; what growth inhibition value has been reported?
Found: -11

Lookup: Suppose we examine the compound CCN1/C(=C/C=C/C=C/c2sc3ccccc3[n+]2CC)Sc2ccccc21 ; what growth inhibition value has been reported?
Found: 93

Lookup: Suppose we examine the compound O=S(O)CCCCSSCC(O)C(O)CSSCCCCS(=O)O (centres undefined) ; what growth inhibition value has been reported?
Found: -10

Lookup: Suppose we examine the compound COc1ccc(CC(=O)c2ccc(O)cc2O)cc1 ; what growth inhibition value has been reported?
Found: 64

Lookup: Suppose we examine the compound COC(=O)C1C(O)C(C)C(O)C(C)C=C(C)C2=C3C(=C(C)C(=O)c4c(O)c(c(C)c(OC(C)=O)c43)NC(=O)C(C)=C/C=C\C(C)C(O)C(C)C1O)OCO2 (centres undefined) ; what growth inhibition value has been reported?
Found: -10

Lookup: Suppose we examine the compound Cc1ccc(S(=O)(=O)NC2CCCCCCC2)cc1 ; what growth inhibition value has been reported?
Found: 48

Lookup: Suppose we examine the compound O=C(/C(=C\c1ccc(Cl)c(Cl)c1)c1ccccc1)c1ccc(O)cc1 ; what growth inhibition value has been reported?
Found: 42

Lookup: Suppose we examine the compound CC(=O)c1ccc(N)cc1 ; what growth inhibition value has been reported?
Found: 12

Lookup: Suppose we examine the compound CN(C)CCNc1ccc(CO)c2oc3ccc(O)cc3c(=O)c12 ; what growth inhibition value has been reported?
Found: 22

Lookup: Suppose we examine the compound BrC(c1cccc2ccccc12)c1cccc2ccccc12 ; what growth inhibition value has been reported?
Found: 0

Lookup: Suppose we examine the compound C[Si]1(C)CN(CCN)C[Si](C)(C)O1 ; what growth inhibition value has been reported?
Found: 2

Lookup: Suppose we examine the compound CCOC(=O)[C@H]1Nc2ccc([N+](=O)[O-])cc2C2c3ccccc3CC21 (some centres undefined) ; what growth inhibition value has been reported?
Found: 8

Lookup: Suppose we examine the compound Oc1cccc2c1-c1ccccc1C2 ; what growth inhibition value has been reported?
Found: -4

Lookup: Suppose we examine the compound NC(=O)c1cc(Br)cc(Br)c1O ; what growth inhibition value has been reported?
Found: 5

Lookup: Suppose we examine the compound O=C(O)c1ccc(Nc2cnc3ccc(C(F)(F)F)cc3n2)cc1 ; what growth inhibition value has been reported?
Found: 5

Lookup: Suppose we examine the compound CC(C)C1=C(O)C2=C(C(=O)C1=O)C1(C)CCCC(C)(C)C1CC2O (centres undefined) ; what growth inhibition value has been reported?
Found: 46

Lookup: Suppose we examine the compound Cc1nc2c(nc1C)C(=O)c1ccccc1C2=O ; what growth inhibition value has been reported?
Found: 11

Lookup: Suppose we examine the compound O=C1C=C(O)c2ccccc2C1=O.[Ag] ; what growth inhibition value has been reported?
Found: 100

Lookup: Suppose we examine the compound O=C(CNCc1ccccc1)Oc1c(Cl)c(Cl)c(Cl)c(Cl)c1Cl ; what growth inhibition value has been reported?
Found: -5

Lookup: Suppose we examine the compound O=C(NN1CCOC1=O)OCCCl ; what growth inhibition value has been reported?
Found: 9

Lookup: Suppose we examine the compound NC(=O)NC(=O)C(Cc1ccc(Cl)cc1)c1ccccc1 (centres undefined) ; what growth inhibition value has been reported?
Found: 4

Lookup: Suppose we examine the compound C[N+]1(Cc2ccc(Cl)c(Cl)c2)CCCC1C1CCCN(Cc2ccc(Cl)c(Cl)c2)C1 (centres undefined) ; what growth inhibition value has been reported?
Found: -11

Lookup: Suppose we examine the compound O=[N+]([O-])c1ccc2ccccc2c1O ; what growth inhibition value has been reported?
Found: 3

Lookup: Suppose we examine the compound COc1ccc(/C=C/NC=O)cc1 ; what growth inhibition value has been reported?
Found: -2

Lookup: Suppose we examine the compound CC(C)Oc1ccc(Nc2ccccc2)cc1 ; what growth inhibition value has been reported?
Found: 0

Lookup: Suppose we examine the compound Cc1c(N)nc(C(CC(N)=O)NCC(N)C(N)=O)nc1C(=O)NC(C(=O)NC(C)C(O)C(C)C(=O)NC(C(=O)NCCc1nc(-c2nc(C(=O)NCCCNCCCCN)cs2)cs1)C(C)O)C(OC1OC(CO)C(O)C(O)C1OC1OC(CO)C(O)C(OC(N)=O)C1O)c1cnc[nH]1 (centres undefined) ; what growth inhibition value has been reported?
Found: 65

Lookup: Suppose we examine the compound CC(=O)Oc1cccc2cccnc12 ; what growth inhibition value has been reported?
Found: 88

Lookup: Suppose we examine the compound CCCCCCCCCCCCCCCCCC(=O)OC(Cc1ccccc1)C(=O)O (centres undefined) ; what growth inhibition value has been reported?
Found: 2

Lookup: Suppose we examine the compound CC(C)(C)CC(C)(C)c1ccc(OCCO)cc1 ; what growth inhibition value has been reported?
Found: -13

Lookup: Suppose we examine the compound O=C(CCl)Nc1ccc(C(=O)N/N=C/c2ccc(Cl)cc2)cc1 ; what growth inhibition value has been reported?
Found: 23

Lookup: Suppose we examine the compound CCOC(=O)C(CN)(c1ccccc1)c1ccccc1 ; what growth inhibition value has been reported?
Found: 2

Lookup: Suppose we examine the compound COc1c(CBr)c(CBr)c(OC)c2c1C(=O)c1ccccc1C2=O ; what growth inhibition value has been reported?
Found: 2

Lookup: Suppose we examine the compound C=CCNC(=O)c1ccccc1SC(C)=O ; what growth inhibition value has been reported?
Found: 23

Lookup: Suppose we examine the compound O=C1C(Cl)=C(N2CCN(C3=C(Cl)C(=O)c4ccccc4C3=O)CC2)C(=O)c2ccccc21 ; what growth inhibition value has been reported?
Found: 14
